tested on: Escherichia coli; assay: Antibacterial activity against Escherichia coli MTCC 723 assessed as growth inhibition after 18 hrs by CLSI microdilution broth assay; format: functional; settings: MTCC 723, 18 h
Where a SMILES comes first, the peptide text is derived from it. [ ]: non-standard residue; d: D form. 3Abz = Nc1cccc(C(=O)O)c1
OBSERVED_PROPERTY: MIC (µg/mL)
# number only, unit µg/mL dropped from output

Lab request: please report MIC under test system Escherichia coli for N=C(N)NCCCC(NC(=O)C(Cc1c[nH]c2ccccc12)NC(=O)c1cccc(NC(=O)C(Cc2c[nH]c3ccccc23)NC(=O)C(CCCNC(=N)N)NC(=O)C(N)Cc2c[nH]c3ccccc23)c1)C(N)=O (centres undefined) (H-WRW[3Abz]WR-NH2; configuration not given here) 7.5

Now try N=C(N)NCCCC(N)C(=O)NC(Cc1c[nH]c2ccccc12)C(=O)Nc1cccc(C(=O)NC(CCCNC(=N)N)C(=O)NC(CCCNC(=N)N)C(N)=O)c1 (centres undefined) (H-RW[3Abz]RR-NH2; configuration not given here) . 100

Now try N=C(N)NCCCC(N)C(=O)NC(Cc1c[nH]c2ccccc12)C(=O)NC(CCCNC(=N)N)C(=O)Nc1cccc(C(=O)NC(Cc2c[nH]c3ccccc23)C(=O)NC(CCCNC(=N)N)C(N)=O)c1 (centres undefined) (H-RWR[3Abz]WR-NH2; configuration not given here) . 120

====

test: Induction of hemolysis in human RBC assessed as hemoglobin release after 1 hr by microtiter plate reader analysis; type: cell-based, Erythrocyte; conditions: erythrocyte, 1 h
Where a SMILES comes first, the peptide text is derived from it. [ ]: non-standard residue; d: D form. 3Abz = Nc1cccc(C(=O)O)c1; Orn = NCCC[CH](N)C(=O)O
Label satisfied for high-side HC10 (at or above 200 µg/mL) and not satisfied for low-side HC10 (below it).

Quick check, HC10 >= 200 µg/mL? NCCCC(NC(=O)C(Cc1ccccc1)NC(=O)c1cccc(NC(=O)C(Cc2ccccc2)NC(=O)C(CCCN)NC(=O)C(N)Cc2ccccc2)c1)C(N)=O (configuration not stated) (H-F[Orn]F[3Abz]F[Orn]-NH2; configuration not given here) not satisfied

Now try N=C(N)NCCCC(NC(=O)C(Cc1c[nH]c2ccccc12)NC(=O)c1cccc(NC(=O)C(CCCNC(=N)N)NC(=O)C(N)Cc2c[nH]c3ccccc23)c1)C(N)=O (configuration not stated) (H-WR[3Abz]WR-NH2; configuration not given here) . satisfied

Now try NCCCC(NC(=O)C(Cc1c[nH]c2ccccc12)NC(=O)c1cccc(NC(=O)C(Cc2c[nH]c3ccccc23)NC(=O)C(CCCN)NC(=O)C(N)Cc2c[nH]c3ccccc23)c1)C(N)=O (configuration not stated) (H-W[Orn]W[3Abz]W[Orn]-NH2; configuration not given here) . not satisfied

Now try N=C(N)NCCCC(N)C(=O)NC(CCCNC(=N)N)C(=O)NC(Cc1c[nH]c2ccccc12)C(=O)Nc1cccc(C(=O)NC(Cc2c[nH]c3ccccc23)C(=O)NC(CCCNC(=N)N)C(N)=O)c1 (configuration not stated) (H-RRW[3Abz]WR-NH2; configuration not given here) . not satisfied

Now try NCCCC(N)C(=O)NC(CCCN)C(=O)NC(Cc1c[nH]c2ccccc12)C(=O)NC(Cc1c[nH]c2ccccc12)C(=O)NC(CCCN)C(N)=O (configuration not stated) (H-[Orn][Orn]WW[Orn]-NH2; configuration not given here) . not satisfied

Now try NCCCC(N)C(=O)NC(Cc1c[nH]c2ccccc12)C(=O)NC(Cc1c[nH]c2ccccc12)C(=O)Nc1cccc(C(=O)NC(CCCN)C(=O)NC(CCCN)C(N)=O)c1 (configuration not stated) (H-[Orn]WW[3Abz][Orn][Orn]-NH2; configuration not given here) . not satisfied

Now try N=C(N)NCCCC(N)C(=O)NC(CCCNC(=N)N)C(=O)NC(Cc1ccccc1)C(=O)Nc1cccc(C(=O)NC(Cc2ccccc2)C(=O)NC(CCCNC(=N)N)C(N)=O)c1 (configuration not stated) (H-RRF[3Abz]FR-NH2; configuration not given here) . not satisfied

Now try N=C(N)NCCCC(NC(=O)C(CCCNC(=N)N)NC(=O)c1cccc(NC(=O)C(CCCNC(=N)N)NC(=O)C(N)Cc2c[nH]c3ccccc23)c1)C(N)=O (configuration not stated) (H-WR[3Abz]RR-NH2; configuration not given here) . satisfied

Now try N=C(N)NCCCC(NC(=O)c1cccc(NC(=O)C(Cc2c[nH]c3ccccc23)NC(=O)C(N)Cc2c[nH]c3ccccc23)c1)C(N)=O (configuration not stated) (H-WW[3Abz]R-NH2; configuration not given here) . not satisfied

Now try NCCCC(N)C(=O)NC(Cc1c[nH]c2ccccc12)C(=O)Nc1cccc(C(=O)NC(Cc2c[nH]c3ccccc23)C(=O)NC(CCCN)C(N)=O)c1 (configuration not stated) (H-[Orn]W[3Abz]W[Orn]-NH2; configuration not given here) . not satisfied

Now try N=C(N)NCCCC(N)C(=O)NC(Cc1c[nH]c2ccccc12)C(=O)Nc1cccc(C(=O)NC(Cc2c[nH]c3ccccc23)C(=O)NC(CCCNC(=N)N)C(N)=O)c1 (configuration not stated) (H-RW[3Abz]WR-NH2; configuration not given here) . satisfied

Now try N=C(N)NCCCC(NC(=O)C(Cc1ccccc1)NC(=O)c1cccc(NC(=O)C(Cc2ccccc2)NC(=O)C(CCCNC(=N)N)NC(=O)C(N)Cc2ccccc2)c1)C(N)=O (configuration not stated) (H-FRF[3Abz]FR-NH2; configuration not given here) . not satisfied

Now try N=C(N)NCCCC(N)C(=O)NC(CCCNC(=N)N)C(=O)NC(Cc1c[nH]c2ccccc12)C(=O)NC(Cc1c[nH]c2ccccc12)C(=O)NC(CCCNC(=N)N)C(N)=O (configuration not stated) (H-RRWWR-NH2; configuration not given here) . not satisfied

Now try N=C(N)NCCCC(N)C(=O)NC(Cc1c[nH]c2ccccc12)C(=O)NC(CCCNC(=N)N)C(=O)Nc1cccc(C(=O)NC(Cc2c[nH]c3ccccc23)C(=O)NC(CCCNC(=N)N)C(N)=O)c1 (configuration not stated) (H-RWR[3Abz]WR-NH2; configuration not given here) . satisfied

Now try N=C(N)NCCCC(N)C(=O)NC(Cc1c[nH]c2ccccc12)C(=O)Nc1cccc(C(=O)NC(CCCNC(=N)N)C(=O)NC(CCCNC(=N)N)C(N)=O)c1 (configuration not stated) (H-RW[3Abz]RR-NH2; configuration not given here) . satisfied

Now try NCCCC(N)C(=O)NC(CCCN)C(=O)NC(Cc1c[nH]c2ccccc12)C(=O)Nc1cccc(C(=O)NC(Cc2c[nH]c3ccccc23)C(=O)NC(CCCN)C(N)=O)c1 (configuration not stated) (H-[Orn][Orn]W[3Abz]W[Orn]-NH2; configuration not given here) . not satisfied
